target: UniProt:P07949; assay: Inhibition of RET (unknown origin) assessed as maximal efficacy relative to control
Sequence (P07949 whole entry): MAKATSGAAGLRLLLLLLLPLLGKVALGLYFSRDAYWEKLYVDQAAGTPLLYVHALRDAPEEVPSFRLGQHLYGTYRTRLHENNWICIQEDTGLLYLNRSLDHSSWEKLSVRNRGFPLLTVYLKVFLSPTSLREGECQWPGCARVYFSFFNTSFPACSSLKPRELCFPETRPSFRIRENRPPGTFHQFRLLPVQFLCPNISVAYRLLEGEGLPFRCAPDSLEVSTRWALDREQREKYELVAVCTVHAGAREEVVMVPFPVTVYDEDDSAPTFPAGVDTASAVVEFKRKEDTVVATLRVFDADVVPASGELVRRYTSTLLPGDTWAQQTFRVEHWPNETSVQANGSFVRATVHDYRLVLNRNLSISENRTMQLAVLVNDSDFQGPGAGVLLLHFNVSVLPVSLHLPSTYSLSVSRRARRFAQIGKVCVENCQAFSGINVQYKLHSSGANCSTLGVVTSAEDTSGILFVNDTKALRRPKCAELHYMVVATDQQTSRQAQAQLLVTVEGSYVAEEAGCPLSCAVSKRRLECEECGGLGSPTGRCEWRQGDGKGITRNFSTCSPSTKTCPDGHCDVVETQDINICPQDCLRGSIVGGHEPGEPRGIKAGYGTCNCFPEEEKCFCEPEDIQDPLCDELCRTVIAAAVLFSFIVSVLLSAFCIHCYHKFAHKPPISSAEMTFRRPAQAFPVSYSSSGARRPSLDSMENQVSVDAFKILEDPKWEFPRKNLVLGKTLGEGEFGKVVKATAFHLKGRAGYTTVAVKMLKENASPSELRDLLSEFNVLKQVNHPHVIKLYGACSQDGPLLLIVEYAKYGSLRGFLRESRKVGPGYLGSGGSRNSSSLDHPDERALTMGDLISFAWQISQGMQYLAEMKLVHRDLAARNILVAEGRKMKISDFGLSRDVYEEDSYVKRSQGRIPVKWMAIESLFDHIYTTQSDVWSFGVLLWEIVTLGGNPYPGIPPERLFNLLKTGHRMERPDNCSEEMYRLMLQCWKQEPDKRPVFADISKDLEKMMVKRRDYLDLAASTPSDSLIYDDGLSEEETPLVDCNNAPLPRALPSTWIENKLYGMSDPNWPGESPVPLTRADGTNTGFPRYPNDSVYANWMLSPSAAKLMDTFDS
measurement type: Emax (%)
Your answer is read as %, so omit the unit and give the number.

Prompt: Given "NC(=O)[C@H](NC(=O)Cc1cccc(O[C@H]2CCc3cc(-c4ncc(Nc5ccccc5)cn4)ccc32)c1)C1CCCCC1" , state its recorded Emax.
Completion: 68

Prompt: Given "CO[C@H]1CCc2cc(-c3cnc(Nc4ccccc4)nc3)ccc21" , state its recorded Emax.
Completion: 0

Prompt: Given "CNC(=O)[C@H](NC(=O)Cc1cccc(O[C@H]2CCc3cc(-c4cnc(Nc5ccccc5)nc4)ccc32)c1)C1CCCCC1" , state its recorded Emax.
Completion: 0

Prompt: Given "O=C(O)Cc1cccc(O[C@H]2CCc3cc(-c4cnc(Nc5ccccc5)nc4)ccc32)c1" , state its recorded Emax.
Completion: 93

Prompt: Given CNC(=O)[C@H](NC(=O)Cc1cccc(O[C@@H]2Cc3ccc(-c4cnc(Nc5ccccc5)nc4)cc3C2)c1)C1CCCCC1 (racemic) , state its recorded Emax.
Completion: 0

Prompt: Given "CNC(=O)[C@H](NC(=O)Cc1cccc(O[C@H]2CCc3cc(-c4cncnc4)ccc32)c1)C1CCCCC1" , state its recorded Emax.
Completion: 100

Prompt: Given "CNC(=O)[C@H](NC(=O)Cc1cccc(O[C@H]2CCc3ccccc32)c1)C1CCCCC1" , state its recorded Emax.
Completion: 0

###

Each item that follows carries a reported Emax.
Target: GDNF family receptor alpha-3 (Homo sapiens)
Sequence (whole entry): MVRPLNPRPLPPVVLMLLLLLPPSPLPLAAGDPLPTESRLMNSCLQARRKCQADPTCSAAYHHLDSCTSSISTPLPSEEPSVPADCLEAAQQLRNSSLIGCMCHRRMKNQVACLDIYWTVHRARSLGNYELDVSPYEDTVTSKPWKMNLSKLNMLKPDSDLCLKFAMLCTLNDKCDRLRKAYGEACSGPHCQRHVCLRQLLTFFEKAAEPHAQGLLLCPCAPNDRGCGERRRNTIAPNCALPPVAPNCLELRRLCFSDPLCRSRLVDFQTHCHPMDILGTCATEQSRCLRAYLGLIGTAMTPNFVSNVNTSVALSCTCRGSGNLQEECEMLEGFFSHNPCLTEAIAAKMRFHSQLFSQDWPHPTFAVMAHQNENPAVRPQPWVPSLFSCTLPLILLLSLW
Experiment: Inhibition of GFRalpha3 (unknown origin) assessed as maximal efficacy relative to control
Your answer is read as %, so omit the unit and give the number.

Use the examples below as a reference point.
CNC(=O)[C@H](NC(=O)Cc1cccc(O[C@@H]2Cc3ccc(-c4cnc(Nc5ccccc5)nc4)cc3C2)c1)C1CCCCC1 (racemic) :: 100
CNC(=O)[C@H](Cc1c[nH]cn1)NC(=O)Cc1cccc(O[C@H]2CCc3cc(-c4cnc(Nc5ccccc5)nc4)ccc32)c1 :: 70
NC(=O)[C@H](NC(=O)Cc1cccc(O[C@H]2CCc3cc(-c4ncc(Nc5ccccc5)cn4)ccc32)c1)C1CCCCC1 :: 100
CNC(=O)[C@H](NC(=O)Cc1cccc(O[C@H]2CCc3cc(-c4cnc(Nc5ccccc5)nc4)ccc32)c1)C1CCCCC1 :: 71
CO[C@H]1CCc2cc(-c3cnc(Nc4ccccc4)nc3)ccc21 :: 0

Prompt: Given "CNC(=O)[C@H](NC(=O)Cc1cccc(O[C@H]2CCc3cc(-c4cncc(Oc5ccccc5)c4)ccc32)c1)C1CCCCC1" , state its recorded Emax.
Completion: 100

Prompt: Given "NC(=O)Cc1cccc(O[C@H]2CCc3cc(-c4cnc(Nc5ccccc5)nc4)ccc32)c1" , state its recorded Emax.
Completion: 0

Prompt: Given "COC(=O)[C@H](Cc1cnc[nH]1)NC(=O)Cc1cccc(O[C@H]2CCc3cc(-c4cncc(Oc5ccccc5)c4)ccc32)c1" , state its recorded Emax.
Completion: 100

Prompt: Given "CNC(=O)[C@H](NC(=O)Cc1cccc(Oc2cnc(Nc3ccccc3)nc2)c1)C1CCCCC1" , state its recorded Emax.
Completion: 0

Prompt: Given "O[C@H]1CCc2cc(-c3cnc(Nc4ccccc4)nc3)ccc21" , state its recorded Emax.
Completion: 71

Prompt: Given "CNC(=O)[C@H](NC(=O)Cc1cccc(O[C@H]2CCc3cc(-c4cnc(Nc5cncnc5)nc4)ccc32)c1)C1CCCCC1" , state its recorded Emax.
Completion: 0

Prompt: Given "CNC(=O)[C@H](NC(=O)Cc1cccc(O[C@H]2CCc3cc(-c4cncnc4)ccc32)c1)C1CCCCC1" , state its recorded Emax.
Completion: 0

Prompt: Given "CNC(=O)Cc1cccc(O[C@H]2CCc3cc(-c4cnc(Nc5ccccc5)nc4)ccc32)c1" , state its recorded Emax.
Completion: 0

Prompt: Given "CNC(=O)[C@@H](Cc1c[nH]cn1)NC(=O)Cc1cccc(O[C@H]2CCc3cc(-c4cnc(Nc5ccccc5)nc4)ccc32)c1" , state its recorded Emax.
Completion: 100

Prompt: Given "CNC(=O)[C@H](NC(=O)Cc1cccc(O[C@H]2CCc3ccccc32)c1)C1CCCCC1" , state its recorded Emax.
Completion: 66

Prompt: Given "O=C(O)Cc1cccc(O[C@H]2CCc3cc(-c4cnc(Nc5ccccc5)nc4)ccc32)c1" , state its recorded Emax.
Completion: 59
